Reference source for all entries: ChEMBL document CHEMBL1201862

# Tested on: LXFL 529
# Measurement description: NCI tumour cell line growth inhibition, 48 h
Calls of active or inactive are those of the source. Rule as the data show it: active = GI50 up to about 1.1 µM and inactive = higher.
Pick one: y for active, n for inactive

Worked cases, answers included:
INSERT INTO results (compound, subject_of_test, category) VALUES
  ('O=C1c2ccccc2C(=O)c2sc(Nc3ccc(Cl)c(Cl)c3)nc21', 'LXFL 529', 'n'),
  ('O=C(Nc1ccc(Nc2ccc(NC(=O)c3ccccc3)c3c2C(=O)c2ccccc2C3=O)c2c1C(=O)c1ccccc1C2=O)c1ccccc1', 'LXFL 529', 'n'),
  ('COc1c(C)c(O)c2c(=O)cc(-c3ccccc3)oc2c1C', 'LXFL 529', 'n'),
  ('N=C(NC(=S)N1CCCCC1)N1CCCCC1', 'LXFL 529', 'n'),
  ('c1ccc([B-]23Oc4ccccc4[NH+]2c2ccccc2O3)cc1 (centres undefined)', 'LXFL 529', 'n');

Query string: GET /call?item= CC(C)CC(=O)N1CCN(C(=O)CC(C)C)c2ccccc21 returns the recorded outcome of this test.
Result string: n

Query string: GET /call?item= COc1cc2cc(OC(C)=O)c3cc4c(cc3c2c(OC)c1OC)OCO4 returns the recorded outcome of this test.
Result string: n

Query string: GET /call?item= CC1=C2C(c3ccccc3)(c3ccccc3)C3C=CC2(C=N3)N(C(=O)NC2CCCCC2)C1=O (centres undefined) returns the recorded outcome of this test.
Result string: n

Query string: GET /call?item= OC(c1cc2ccccc2[nH]1)C(O)(c1cc2ccccc2[nH]1)c1cc2ccccc2[nH]1 (centres undefined) returns the recorded outcome of this test.
Result string: n

Query string: GET /call?item= CN(C)c1ccc(Cc2cc(C(C)(C)C)cc(C(C)(C)C)c2O)cc1 returns the recorded outcome of this test.
Result string: n

Query string: GET /call?item= CC(C)C(=O)Nc1nc2[nH]cnc2c(=O)[nH]1 returns the recorded outcome of this test.
Result string: n

Query string: GET /call?item= ON=C1CCC(c2ccccc2)CC1 (centres undefined) returns the recorded outcome of this test.
Result string: n

Query string: GET /call?item= COC(=O)c1cc2c(nc1C)-c1ccccc1OS2(=O)=O returns the recorded outcome of this test.
Result string: n

Query string: GET /call?item= O=C(/C=C/c1ccccc1O)c1cccc2ccccc12 returns the recorded outcome of this test.
Result string: n

Query string: GET /call?item= CC1=C(C(=O)Nc2ccccc2C)C(c2ccc(C3C(C(=O)Nc4ccccc4C)=CNC=C3C(=O)Nc3ccccc3C)cc2)C(C(=O)Nc2ccccc2C)=C(C)N1 returns the recorded outcome of this test.
Result string: n
